Recorded measurements of Percent Effect, one per entry
Target: Protein translocase subunit SecA (Escherichia coli (strain K12)) (UniProt P10408)
Sequence (P10408 whole entry): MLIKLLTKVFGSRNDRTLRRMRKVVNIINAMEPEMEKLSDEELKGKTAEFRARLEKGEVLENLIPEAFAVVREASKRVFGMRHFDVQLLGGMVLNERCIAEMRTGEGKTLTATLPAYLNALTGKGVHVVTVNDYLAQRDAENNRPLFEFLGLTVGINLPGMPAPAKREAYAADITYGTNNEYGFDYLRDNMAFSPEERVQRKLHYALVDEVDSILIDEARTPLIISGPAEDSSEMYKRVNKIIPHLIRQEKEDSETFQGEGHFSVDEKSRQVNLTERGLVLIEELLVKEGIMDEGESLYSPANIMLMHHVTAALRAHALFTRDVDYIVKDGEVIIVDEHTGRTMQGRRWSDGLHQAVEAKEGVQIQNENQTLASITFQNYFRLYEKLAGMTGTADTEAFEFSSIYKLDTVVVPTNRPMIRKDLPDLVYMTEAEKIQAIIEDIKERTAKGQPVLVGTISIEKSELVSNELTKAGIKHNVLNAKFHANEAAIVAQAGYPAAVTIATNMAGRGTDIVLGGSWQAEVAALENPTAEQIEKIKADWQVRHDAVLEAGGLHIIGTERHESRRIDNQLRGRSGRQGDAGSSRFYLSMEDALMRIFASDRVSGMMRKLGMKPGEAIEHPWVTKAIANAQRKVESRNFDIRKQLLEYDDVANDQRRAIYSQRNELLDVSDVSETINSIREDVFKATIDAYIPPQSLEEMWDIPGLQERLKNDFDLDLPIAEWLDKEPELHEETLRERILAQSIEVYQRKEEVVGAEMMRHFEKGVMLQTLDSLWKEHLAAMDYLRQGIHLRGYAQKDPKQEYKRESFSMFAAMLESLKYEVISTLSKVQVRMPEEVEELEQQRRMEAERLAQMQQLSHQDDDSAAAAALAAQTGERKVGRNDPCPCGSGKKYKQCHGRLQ
Assay: Assay to Identify E. coli SecA ATPase Inhibitors
Format: functional
Design: scale not given: direction of the effect not stated beside the values
Conditions: 30 µM
Results with a measured potency or affinity are listed apart.
VALUE_TYPE: Percent Effect (%)

| COMPOUND | VALUE_TYPE | VALUE_REPORTED |
| --- | --- | --- |
| Cc1nn(-c2ccccc2)cc1C(=O)N1CCCC(n2cccn2)C1 (configuration not stated) | Percent Effect | -2.22 |
| Cn1ccnc1CN1C[C@@H](CN2CCC(CO)CC2)[C@@H](CO)C1 | Percent Effect | -7.42 |
| Cc1nc(CN2C(=O)CC[C@@H]3[C@H]2CCN3C(=O)NC2CC2)cs1 | Percent Effect | 1.26 |
| c1csc(CN2CCOCC3(CCN(C4CCOCC4)C3)C2)n1 (configuration not stated) | Percent Effect | -5.6 |
| Cn1cccc1-c1cc(C(=O)N2CC(c3cccnc3)C2)[nH]n1 | Percent Effect | -12.9 |
| Cc1cnn(C2CN(Cc3ccc4c(c3)OCCO4)C2)c1 | Percent Effect | -0.648 |
| CCn1ccnc1CN1CCCN(C(=O)c2cccn2C)CC1 | Percent Effect | -5.36 |
| O=C(c1cc(C2CC2)on1)N1CCCC(n2cncn2)C1 (configuration not stated) | Percent Effect | -3.26 |
| Cc1cc(N2CCN(Cc3nccn3C)CC2)cc(C)n1 | Percent Effect | -3.69 |
| O=C1NC2(CCN(Cc3cccnc3)CC2)CC1c1ccncc1 (configuration not stated) | Percent Effect | -3.31 |
| COc1ccc(Cc2cccc(C3CCN(C)CC3)n2)cc1 | Percent Effect | -2.99 |
| CN1CCc2c(C#N)c(NCc3ccco3)n3cnnc3c2C1 | Percent Effect | -7.61 |

---

Target: Proteasome subunit beta (Trypanosoma cruzi)
Assay: Trypanosoma cruzi proteasome chymotrypsin-like activity (TcProtChymo) assay. Also: in the data most compounds retested in dose-response had high values.
Assay type: functional
Set-up: scale not given: direction of the effect not stated beside the values
Details: 9.37 µM

| COMPOUND | Percent Effect, % |
| --- | --- |
| O=C1CCC2(CCCN(c3ncc(F)cn3)CC2)N1CC1CC1 (stereo unspecified) | 12.7 |
| CN(Cc1ccsc1)C(=O)c1cccc(NS(C)(=O)=O)c1 | 3.72 |
| Cc1noc(C)c1CN1CCN(CC2CC2)c2ncccc2C1 | 4.49 |
| O=C(c1ccoc1)N1CCC2(CC1)C(=O)Nc1ccccc12 | 5.06 |
| O=C1CC(c2cccnc2)C2(CCN(C(=O)c3ccncc3)CC2)N1 (stereo unspecified) | 17.9 |
| CNC(=O)C1(CCCc2ccncc2)CCCN1 (stereo unspecified) | 12.3 |

---

Biological target: Arginase-2, mitochondrial (Homo sapiens)
Sequence (whole entry): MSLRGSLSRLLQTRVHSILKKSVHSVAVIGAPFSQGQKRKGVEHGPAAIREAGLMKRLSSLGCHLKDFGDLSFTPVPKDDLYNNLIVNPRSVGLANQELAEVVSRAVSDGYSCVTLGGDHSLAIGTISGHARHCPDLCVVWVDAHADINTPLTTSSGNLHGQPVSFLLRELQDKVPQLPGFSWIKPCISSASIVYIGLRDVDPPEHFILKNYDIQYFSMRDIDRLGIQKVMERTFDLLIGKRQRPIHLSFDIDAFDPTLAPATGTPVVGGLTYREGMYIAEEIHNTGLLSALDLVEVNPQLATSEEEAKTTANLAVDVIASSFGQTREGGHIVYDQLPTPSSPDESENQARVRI
Test: in vitro enzyme assay to detect the production of urea directly proportional to the activity of Arginase II; also: in the data most compounds retested in dose-response had high values
Format: functional
Set-up: scale not given: direction of the effect not stated beside the values
Details: 33.3 µM
Recorded measurements of Percent Effect, one per entry
VALUE_TYPE: Percent Effect (%)

| MOLECULE | VALUE_REPORTED |
| --- | --- |
| O=C(CCn1cccn1)N1CCN(CC(F)F)CC1 | 0.554 |
| COC(=O)CC(c1cnn(C)c1)c1oc(C)cc(=O)c1O (centres undefined) | -3.85 |
| COc1ccc(Nc2nc3c(C)nn(C)c3c(=O)n2C)c(OC)c1 | -12.4 |
| CC(C)CNC(=O)NC(=O)CNc1ccccc1SCC(C)C#N (centres undefined) | 6.82 |
| Cc1nc(C)n(CC2CCCN(Cc3ccc(C(N)=O)cc3)C2)n1 (centres undefined) | -3.58 |
| Cc1cccc(C(=O)NC(CN2CCCC2=O)c2ccccc2)n1 (centres undefined) | 6.13 |
| Cc1nc(C)n(CC2CN(Cc3cccc4c3OCCO4)CCO2)n1 (centres undefined) | 1.08 |
| COc1cnc(C2(O)CCN(C(=O)c3cccnc3)CC2)c(OC)n1 | -0.696 |
| O=C1CN(Cc2ccc(-c3ccccc3C(=O)O)cc2)CCN1 | -1.33 |
| CC(C)C(=O)N1CCCC(c2ncncc2-c2ccncc2)C1 (centres undefined) | -4.89 |
| CC(NC(=O)N1CCC(OCc2ccccc2)CC1)c1nncn1C (centres undefined) | 1.33 |
| Cc1ccc(NC2CCN(C(=O)c3ccc(Cl)o3)CC2)nn1 | 1.15 |
| CCc1nccn1C1CCCN(C(=O)c2cn3c(C)cccc3n2)C1 (centres undefined) | -9.47 |
| Cn1ccnc1C(NCc1csc(Br)c1)c1ccccc1 (centres undefined) | 1.66 |
| COCC(=O)N1CCC(c2nccnc2Oc2cccnc2C)CC1 | 4.87 |
| CC(C(=O)NCCOc1cccc(Cl)c1)n1cncn1 (centres undefined) | 3.42 |
| COCCc1noc(CN2CCCC(Cn3nc(C)nc3C)C2)n1 (centres undefined) | -7.62 |
| CC(C)c1nccn1-c1cccc(C2CCCN2S(=O)(=O)N(C)C)n1 (centres undefined) | -1.77 |
| O=C(O)c1cc(S(=O)(=O)Nc2cc(F)ccc2F)cc2c1OCCO2 | 3.6 |
| Cc1nc(C)n(CC2CCCN(CCC(=O)N3CCCCC3)C2)n1 (centres undefined) | 5.26 |
| CC(C)c1nc(C2CCCN(C(=O)c3ccc4[nH]cnc4c3)C2)no1 (centres undefined) | -5.26 |
| N#Cc1ccc(C(=O)N2CC[C@H]3[C@@H]2CCC(=O)N3c2cccnc2)cc1 | 3.5 |
| Cc1ccccc1N1CCCN(C(=O)CCCS(N)(=O)=O)CC1 | 2.73 |
| NC(=O)NCC(=O)N1C[C@H]2CC[C@@H]1CN(C1Cc3ccccc3C1)C2 | -3.23 |

---

Molecular target: Tyrosyl-tRNA synthetase, putative (Trypanosoma cruzi (strain CL Brener)) (UniProt Q4DSP6)
Sequence (whole entry): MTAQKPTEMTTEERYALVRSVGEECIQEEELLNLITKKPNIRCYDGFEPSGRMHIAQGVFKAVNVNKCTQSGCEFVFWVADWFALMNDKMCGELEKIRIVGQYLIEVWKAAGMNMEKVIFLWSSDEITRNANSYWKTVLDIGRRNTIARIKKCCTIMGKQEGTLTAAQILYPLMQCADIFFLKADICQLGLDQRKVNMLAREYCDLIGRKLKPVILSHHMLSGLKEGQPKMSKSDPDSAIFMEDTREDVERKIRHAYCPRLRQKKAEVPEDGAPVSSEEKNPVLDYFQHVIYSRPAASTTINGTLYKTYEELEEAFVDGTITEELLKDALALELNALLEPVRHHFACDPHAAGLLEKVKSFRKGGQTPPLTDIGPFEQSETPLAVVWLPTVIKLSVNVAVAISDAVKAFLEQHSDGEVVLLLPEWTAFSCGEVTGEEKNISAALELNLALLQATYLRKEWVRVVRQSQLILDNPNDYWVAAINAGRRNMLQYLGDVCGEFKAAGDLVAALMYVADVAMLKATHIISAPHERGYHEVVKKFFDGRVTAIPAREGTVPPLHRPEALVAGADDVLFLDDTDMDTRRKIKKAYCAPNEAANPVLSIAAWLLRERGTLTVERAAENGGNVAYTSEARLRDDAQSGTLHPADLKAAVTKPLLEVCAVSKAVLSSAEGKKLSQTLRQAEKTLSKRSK
Assay: Trypanosoma cruzi tyrosyl tRNA synthetase (TcYRS) _High Tyrosine SOP; also: in the data most compounds retested in dose-response had high values
Assay type: functional
Design: scale not given: direction of the effect not stated beside the values
Details: 30 µM
Recorded measurements of Percent Effect, one per entry
VALUE_TYPE: Percent Effect (%)

| COMPOUND | TARGET_ENTITY | VALUE_REPORTED |
| --- | --- | --- |
| CC(C)(C)c1ncc2c(n1)CN(C(=O)c1ccc(-c3nc[nH]n3)cc1)C2 | Tyrosyl-tRNA synthetase, putative (Trypanosoma cruzi (strain CL Brener)) (UniProt Q4DSP6) | 7.29 |
| CN(Cc1cc2c(cc1OC(F)F)OCO2)Cc1nccn1C | Tyrosyl-tRNA synthetase, putative (Trypanosoma cruzi (strain CL Brener)) (UniProt Q4DSP6) | 3.23 |
| CS(=O)(=O)N1CC[C@H]2C[C@@H](C(=O)N3CCOCC3)O[C@@H]2C1 | Tyrosyl-tRNA synthetase, putative (Trypanosoma cruzi (strain CL Brener)) (UniProt Q4DSP6) | -2.08 |
| Cc1cnn(C2CCCN(C(=O)Cc3ccc(-n4cccn4)cc3)C2)c1 (centres undefined) | Tyrosyl-tRNA synthetase, putative (Trypanosoma cruzi (strain CL Brener)) (UniProt Q4DSP6) | -1.58 |
| Cc1nccn1CCC1CCCCN1Cc1ccc(N(C)C)nc1 (centres undefined) | Tyrosyl-tRNA synthetase, putative (Trypanosoma cruzi (strain CL Brener)) (UniProt Q4DSP6) | 0.546 |
| CC(C)NC(=O)N1CCN(C(=O)N(C)C)CC2(CC(=O)N(C)C2)C1 (centres undefined) | Tyrosyl-tRNA synthetase, putative (Trypanosoma cruzi (strain CL Brener)) (UniProt Q4DSP6) | 8.91 |
| O=C(CCCOc1ccccc1Cl)N1CCCC(n2cncn2)C1 (centres undefined) | Tyrosyl-tRNA synthetase, putative (Trypanosoma cruzi (strain CL Brener)) (UniProt Q4DSP6) | 1.44 |
| Cn1c(CN2CCCC2)nnc1C1CCCN(C(=O)C2CCOCC2)C1 (centres undefined) | Tyrosyl-tRNA synthetase, putative (Trypanosoma cruzi (strain CL Brener)) (UniProt Q4DSP6) | 4.76 |
| CCn1cc(CN2CCC(c3nnc(CN(C)C)n3CC)CC2)cn1 | Tyrosyl-tRNA synthetase, putative (Trypanosoma cruzi (strain CL Brener)) (UniProt Q4DSP6) | 2.15 |
| CCN(CC1CCCO1)C(=O)Nc1cc(C(=O)OC)ccc1F (centres undefined) | Tyrosyl-tRNA synthetase, putative (Trypanosoma cruzi (strain CL Brener)) (UniProt Q4DSP6) | 3.45 |
| CC1CCN(CCNC(=O)c2cncnc2C(C)C)CC1 | Tyrosyl-tRNA synthetase, putative (Trypanosoma cruzi (strain CL Brener)) (UniProt Q4DSP6) | 1.05 |
| CC(C)(C)c1noc(CN2CCN(C(=O)c3cccs3)CC2)n1 | Tyrosyl-tRNA synthetase, putative (Trypanosoma cruzi (strain CL Brener)) (UniProt Q4DSP6) | 7.77 |
| CN1CCCN(C(=O)c2ccc3c(c2)nc(N2CCOCC2)n3C)CC1 | Tyrosyl-tRNA synthetase, putative (Trypanosoma cruzi (strain CL Brener)) (UniProt Q4DSP6) | 2.1 |
| O=C1c2cnc(N3CCOCC3)nc2CN1c1ccc2c(c1)OCO2 | Tyrosyl-tRNA synthetase, putative (Trypanosoma cruzi (strain CL Brener)) (UniProt Q4DSP6) | 9.68 |
| CCN1CCn2nc(CCC(=O)N3CCCC3)cc2C1 | Tyrosyl-tRNA synthetase, putative (Trypanosoma cruzi (strain CL Brener)) (UniProt Q4DSP6) | 5.85 |
| COc1cccc(-c2nc(CNCCn3cccn3)cs2)c1 | Tyrosyl-tRNA synthetase, putative (Trypanosoma cruzi (strain CL Brener)) (UniProt Q4DSP6) | 4.31 |
| Cc1ccc(C(CNC(=O)NCc2cc[nH]n2)N2CCOCC2)o1 (centres undefined) | Tyrosyl-tRNA synthetase, putative (Trypanosoma cruzi (strain CL Brener)) (UniProt Q4DSP6) | 2.39 |
| CC(=O)Nc1cc(C(=O)N2CCOCC2c2ccc(C)o2)ccc1F (centres undefined) | Tyrosyl-tRNA synthetase, putative (Trypanosoma cruzi (strain CL Brener)) (UniProt Q4DSP6) | 0.546 |
| Cc1ccc(N2CCC3(CCN(C(N)=O)CC3)CC2)nn1 | Tyrosyl-tRNA synthetase, putative (Trypanosoma cruzi (strain CL Brener)) (UniProt Q4DSP6) | 1.58 |
| O=C1NC2(CCN(Cc3cccnc3)CC2)CC1c1ccncc1 (centres undefined) | Tyrosyl-tRNA synthetase, putative (Trypanosoma cruzi (strain CL Brener)) (UniProt Q4DSP6) | 1.58 |
| COC[C@@H]1CC[C@H]2[C@H](CCN2S(=O)(=O)c2ccc(OC)cc2)O1 | Tyrosyl-tRNA synthetase, putative (Trypanosoma cruzi (strain CL Brener)) (UniProt Q4DSP6) | -1.58 |
| CN1C(=O)C[C@@H]2[C@@H]1CCN2C(=O)c1ccc[nH]1 | Tyrosyl-tRNA synthetase, putative (Trypanosoma cruzi (strain CL Brener)) (UniProt Q4DSP6) | 1.04 |
| Nc1nc(C2CCN(C(=O)c3cncs3)CC2)cs1 | Tyrosyl-tRNA synthetase, putative (Trypanosoma cruzi (strain CL Brener)) (UniProt Q4DSP6) | 3.23 |
| CC1c2ncc(CNC(=O)C3CC3)n2CCN1Cc1cnn(C)c1 (centres undefined) | Tyrosyl-tRNA synthetase, putative (Trypanosoma cruzi (strain CL Brener)) (UniProt Q4DSP6) | 3.12 |

Reference source: ChEMBL document CHEMBL3988442
